test system: PC-3; assay: Cytotoxicity against human PC3 cells by resazurin reduction test; type: functional, cell-based
pIC50: −log10 of the molar value.
readout.name: pIC50

> print(dat)
                               query.smiles  readout.name  readout.number
1  CC(=O)OC[C@H]1O[C@@H](Oc2ccc(NC(=O)CNC(=O)CCCc3ccc(N(CCCl)CCCl)cc3)cc2)[C@H](F)[C@@H](OC(C)=O)[C@@H]1OC(C)=O         pIC50            5.10
2  CC(=O)OC[C@H]1O[C@@H](NC(=O)c2ccc(NC(=O)CCCc3ccc(N(CCCl)CCCl)cc3)cc2)[C@H](F)[C@@H](OC(C)=O)[C@@H]1OC(C)=O         pIC50            5.85
3  CC(=O)OC[C@H]1O[C@@H](NC(=O)CCNC(=O)CCCc2ccc(N(CCCl)CCCl)cc2)[C@H](F)[C@@H](OC(C)=O)[C@@H]1OC(C)=O         pIC50            5.43
4  CC(=O)OC[C@H]1O[C@@H](NC(=O)NCCCc2ccc(N(CCCl)CCCl)cc2)[C@H](F)[C@@H](OC(C)=O)[C@@H]1OC(C)=O         pIC50            5.40
5  CC(=O)OC[C@H]1O[C@@H](NC(=O)CCCNC(=O)CCCc2ccc(N(CCCl)CCCl)cc2)[C@H](F)[C@@H](OC(C)=O)[C@@H]1OC(C)=O         pIC50            5.52
6  CC(=O)OC[C@H]1O[C@@H](Oc2ccc(NC(=O)CCCc3ccc(N(CCCl)CCCl)cc3)cc2)[C@H](F)[C@@H](OC(C)=O)[C@@H]1OC(C)=O         pIC50            4.96
7  CC(=O)OC[C@H]1O[C@@H](NC(=O)CCCc2ccc(N(CCCl)CCCl)cc2)[C@H](F)[C@@H](OC(C)=O)[C@@H]1OC(C)=O         pIC50            5.36
8  CC(=O)OC[C@H]1O[C@@H](NC(=O)CNC(=O)CCCc2ccc(N(CCCl)CCCl)cc2)[C@H](F)[C@@H](OC(C)=O)[C@@H]1OC(C)=O         pIC50            5.00
